test system: P388; test: In vitro cytotoxicity against P388-mouse leukemia cells.; type: functional, cell-based
measured-quantity: IC50

INSERT INTO measurements (structure_smiles_string, assay_value) VALUES
  ('CC(=O)O[C@@H]1C2=C(C)[C@@H](OC(=O)[C@H](O)[C@@H](NC(=O)OCC(C)(C)C)c3ccccc3)C[C@@](O)([C@@H](OC(=O)c3ccccc3)[C@@H]3[C@]4(OC(C)=O)CO[C@@H]4C[C@H](O)[C@@]3(C)[C@H]1O)C2(C)C', '0.019 µg/mL'),
  ('CC(=O)O[C@@H]1C2=C(C)[C@@H](OC(=O)[C@H](O)[C@@H](NC(=O)C(C)(C)C)c3ccccc3)C[C@@](O)([C@@H](OC(=O)c3ccccc3)[C@@H]3[C@]4(OC(C)=O)CO[C@@H]4C[C@H](O)[C@@]3(C)[C@H]1O)C2(C)C', '0.083 µg/mL'),
  ('CC(=O)O[C@@H]1C2=C(C)[C@@H](OC(=O)[C@H](O)[C@@H](NC(=O)CC(C)(C)C)c3ccccc3)C[C@@](O)([C@@H](OC(=O)c3ccccc3)[C@@H]3[C@]4(OC(C)=O)CO[C@@H]4C[C@H](O)[C@@]3(C)[C@H]1O)C2(C)C', '0.052 µg/mL'),
  ('CC(=O)O[C@@H]1C2=C(C)[C@@H](OC(=O)[C@H](O)[C@@H](NC(=O)OCc3ccccc3)c3ccccc3)C[C@@](O)([C@@H](OC(=O)c3ccccc3)[C@@H]3[C@]4(OC(C)=O)CO[C@@H]4C[C@H](O)[C@@]3(C)[C@H]1O)C2(C)C', '0.057 µg/mL');
